- system-name: T1, human GITR (hGITR), soluble analyte (human, UniProt Q9Y5U5 26-162)
- T1 sequence: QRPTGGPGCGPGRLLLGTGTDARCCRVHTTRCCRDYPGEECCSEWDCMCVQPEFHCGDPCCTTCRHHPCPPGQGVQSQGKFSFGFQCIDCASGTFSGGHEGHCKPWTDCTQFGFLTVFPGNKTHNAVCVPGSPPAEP
- test-description: SPR (Biacore T200), 37 C; antibody captured on anti-human Fc chip, GITR as analyte; 1:1 Langmuir fit
pKd: −log10 of the molar value.
Recorded pKd for the following binders

binder: m10H2 (antibody, V domains shown, In ADCC it is called hIgG1; also called anti-human GITR antibody m10H2; A647 labeled m10H2) VH: QVQLQQSGAELMKPGASVKISCTATGYTISRYWIEWVKQRPGHGLEWIGEILPGSGVTNYNEKFKGKATFTADTSSNTAYMQLSSLTSEDSAVYSCARKGTYYAMDYWGQGTSVTVSS VL: DILLTQSPAILSVSPGERVSFSCRASQSIGTSIHWYQQRTNGSPRLLIKYASESVSGIPSRFSGSGSGTDFTLFINSVESEDIADYYCQQTYSWPATFGAGTKLELK
modifier-sign: =
pKd: 8.66

binder: h3G7 AM (antibody, V domains shown, Whole IgG captured on an anti-human Fc chip) VH: QVQLVQSGAEVKKPGASVKVSCKASGYTFTGATMNWVRQAPGQGLEWMGLINPYNGGIRYNQKFKGRVTMTRDTSTSTVYMELSSLRSEDTAVYYCARIGGYYDSMDYWGQGTLVTVSS VL: DIQMTQSPSSLSASVGDRVTITCRASESVDPRGINFLNWYQQKPGKAPKLLIYAASNQAKGVPSRFSGSGSGTDFTLTISSLQPEDFATYYCQQALELPWTFGGGTKVEIK
modifier-sign: =
pKd: 7.77

binder: h3G7 R5 (antibody, V domains shown, Only variable domains are tied to this name) VH: QVQLVQSGAEVKKPGASVKVSCKASGYTFTGATMNWVRQAPGQGLEWMGLINPYTGGIRYNQKFKGRVTMTRDTSTSTVYMELSSLRSEDTAVYYCARIGGYYDSMDYWGQGTLVTVSS VL: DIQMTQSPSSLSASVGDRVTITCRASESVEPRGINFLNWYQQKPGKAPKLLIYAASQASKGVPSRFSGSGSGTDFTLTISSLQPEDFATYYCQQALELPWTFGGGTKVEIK
modifier-sign: =
pKd: 8.30

binder: h10H2 HU (antibody, V domains shown, Whole IgG captured on an anti-human Fc chip) VH: QVQLVQSGAEVKKPGSSVKVSCKASGGTFSRYWIEWVRQAPGQGLEWMGEILPGSGVTNYNEKFKGRVTITADESTSTAYMELSSLRSEDTAVYYCARKGTYYAMDYWGQGTSVTVSS VL: EIVLTQSPGTLSLSPGERATLSCRASQSIGTSIHWYQQKPGQAPRLLIYYASESVSGIPDRFSGSGSGTDFTLTISRLEPEDFAVYYCQQTYSWPATFGQGTKVEIK
modifier-sign: <
pKd: 7.00

binder: h3G7 LF (antibody, V domains shown, Whole IgG captured on an anti-human Fc chip) VH: QVQLVQSGAEVKKPGASVKVSCKASGYTFTGATMNWVRQAPGQGLEWMGLINPYTGGIRYNQKFKGRVTMTRDTSTSTVYMELSSLRSEDTAVYYCARIGGYYDTMDYWGQGTLVTVSS VL: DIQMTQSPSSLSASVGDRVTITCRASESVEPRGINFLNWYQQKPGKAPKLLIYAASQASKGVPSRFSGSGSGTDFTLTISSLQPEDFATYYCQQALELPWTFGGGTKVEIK
modifier-sign: =
pKd: 7.66

binder: h10H2 AM (antibody, V domains shown, Whole IgG captured on an anti-human Fc chip) VH: QVQLVQSGAEVKKPGSSVKVSCKASGGTFSRYWIEWVRQAPGQGLEWMGEILPGSGVTFENEKFKGRVTITADESTSTAYMELSSLRSEDTAVYYCARKGRYYAMDYWGQGTLVTVSS VL: EIVLTQSPGTLSLSPGERATLSCRASQSIGTSIHWYQQKPGQAPRLLIYYASESVSGIPDRFSGSGSGTDFTLTISRLEPEDFAVYYCQQTYSWPATFGQGTKVEIK
modifier-sign: =
pKd: 8.18

src = patent US20200031947A1
